target: BaF3 TELJAK2 cells (BafT_J2) (Homo sapiens, UniProt O60674); construct: fused on or other part: TEL (ETV6) N-terminal part, coding nucleotides 1-487, serves as the oligomerising partner; It is fused through a Sal I site to the JAK2 kinase domain and expressed from pTRE2 in BaF3 cells bearing pTET-off; P41212 (Transcription factor ETV6); experiment: Cellular screening, BaF3 TEL:JAK2 cells, Alamar Blue; type: cell-based; details: 40 hr, read-out: BafT_J2 IC50_nM
Sequence (O60674 whole entry, change not shown, the tested form may be a part): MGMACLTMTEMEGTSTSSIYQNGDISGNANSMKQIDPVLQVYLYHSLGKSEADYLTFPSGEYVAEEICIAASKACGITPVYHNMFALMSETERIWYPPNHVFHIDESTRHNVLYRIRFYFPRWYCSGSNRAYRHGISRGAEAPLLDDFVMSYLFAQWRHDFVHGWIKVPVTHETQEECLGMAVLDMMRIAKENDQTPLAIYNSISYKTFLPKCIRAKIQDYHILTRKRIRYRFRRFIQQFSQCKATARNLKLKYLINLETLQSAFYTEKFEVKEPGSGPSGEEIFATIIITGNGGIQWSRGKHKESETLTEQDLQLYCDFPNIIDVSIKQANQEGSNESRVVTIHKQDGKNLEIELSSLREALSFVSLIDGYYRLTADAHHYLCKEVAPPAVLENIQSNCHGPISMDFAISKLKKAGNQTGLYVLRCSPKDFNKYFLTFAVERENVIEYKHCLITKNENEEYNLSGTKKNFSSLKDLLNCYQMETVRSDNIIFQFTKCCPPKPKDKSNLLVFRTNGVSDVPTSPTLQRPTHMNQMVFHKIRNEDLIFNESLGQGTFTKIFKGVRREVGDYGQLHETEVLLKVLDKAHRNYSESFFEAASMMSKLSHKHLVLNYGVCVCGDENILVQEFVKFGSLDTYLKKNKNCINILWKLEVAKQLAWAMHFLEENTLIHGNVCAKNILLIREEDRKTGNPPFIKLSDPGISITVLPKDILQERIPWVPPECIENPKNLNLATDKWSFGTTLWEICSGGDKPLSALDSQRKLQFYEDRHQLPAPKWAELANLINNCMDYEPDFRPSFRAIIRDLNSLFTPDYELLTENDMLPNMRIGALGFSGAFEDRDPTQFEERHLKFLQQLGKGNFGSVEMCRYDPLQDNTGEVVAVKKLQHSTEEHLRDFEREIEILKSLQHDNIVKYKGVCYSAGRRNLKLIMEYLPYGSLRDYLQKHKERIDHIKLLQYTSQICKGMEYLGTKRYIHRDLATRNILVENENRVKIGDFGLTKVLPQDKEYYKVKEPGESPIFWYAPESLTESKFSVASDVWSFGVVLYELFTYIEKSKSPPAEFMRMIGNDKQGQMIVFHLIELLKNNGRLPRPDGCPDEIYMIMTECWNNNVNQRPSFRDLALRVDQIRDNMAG
Measured property: GI50

smiles_representation=C=CC(=O)Nc1cccc(Sc2ccnc(Nc3ccc(OC)cc3)n2)c1 system_name="BaF3 TELJAK2 cells (BafT_J2) (Homo sapiens, UniProt O60674)" observed_measurement="< 20 µM"
smiles_representation=C=CC(=O)Nc1ccc(Sc2ccnc(Nc3ccc(N4CCOCC4)cc3)n2)cc1OC system_name="BaF3 TELJAK2 cells (BafT_J2) (Homo sapiens, UniProt O60674)" observed_measurement="< 5 µM"
smiles_representation=O=C(/C=C/Cl)Nc1cccc(Sc2ccnc(Nc3ccc(N4CCOCC4)cc3)n2)c1 system_name="BaF3 TELJAK2 cells (BafT_J2) (Homo sapiens, UniProt O60674)" observed_measurement="< 20 µM"
smiles_representation=Cc1cnc(Nc2ccc(N3CCOCC3)cc2)nc1Sc1cccc(CO)c1 system_name="BaF3 TELJAK2 cells (BafT_J2) (Homo sapiens, UniProt O60674)" observed_measurement="> 20 µM"
smiles_representation=C=CC(=O)Nc1ccc(Sc2nc(Nc3ccc(N4CCOCC4)cc3)ncc2I)cc1 system_name="BaF3 TELJAK2 cells (BafT_J2) (Homo sapiens, UniProt O60674)" observed_measurement="> 20 µM"
smiles_representation=C=CC(=O)Nc1ccc(Sc2ccnc(Nc3ccc(N4CCC(N5CCCC5)CC4)cc3)n2)cc1 system_name="BaF3 TELJAK2 cells (BafT_J2) (Homo sapiens, UniProt O60674)" observed_measurement="< 5 µM"
smiles_representation=C=CC(=O)Nc1ccc(Nc2nccc(SC)n2)cc1 system_name="BaF3 TELJAK2 cells (BafT_J2) (Homo sapiens, UniProt O60674)" observed_measurement="< 20 µM"
smiles_representation=CC(=O)Nc1ccc(Sc2nc(Nc3ccc(N4CCOCC4)cc3)ncc2C)cc1 system_name="BaF3 TELJAK2 cells (BafT_J2) (Homo sapiens, UniProt O60674)" observed_measurement="< 20 µM"
smiles_representation=Cc1cnc(Nc2cccc(S)c2)nc1Sc1ccc(NC(=O)CCl)cc1 system_name="BaF3 TELJAK2 cells (BafT_J2) (Homo sapiens, UniProt O60674)" observed_measurement="> 20 µM"
smiles_representation=Cc1cnc(Nc2ccc(N3CCOCC3)cc2)nc1Sc1ccc(N2C(=O)C=CC2=O)cc1 system_name="BaF3 TELJAK2 cells (BafT_J2) (Homo sapiens, UniProt O60674)" observed_measurement="< 5 µM"
smiles_representation=C=CC(=O)Nc1ccc(Sc2nc(Nc3ccc(N4CCC(C(=O)OCC)CC4)cc3)ncc2C)cc1 system_name="BaF3 TELJAK2 cells (BafT_J2) (Homo sapiens, UniProt O60674)" observed_measurement="> 20 µM"
smiles_representation=N#CCNCc1cccc(Sc2ccnc(Nc3ccc(N4CCOCC4)cc3)n2)c1 system_name="BaF3 TELJAK2 cells (BafT_J2) (Homo sapiens, UniProt O60674)" observed_measurement="< 20 µM"
smiles_representation=CON(C)C(=O)c1ccc(Sc2nc(Nc3ccc(N4CCOCC4)cc3)ncc2C)cc1 system_name="BaF3 TELJAK2 cells (BafT_J2) (Homo sapiens, UniProt O60674)" observed_measurement="> 20 µM"
smiles_representation=OCc1ccc(Sc2ccnc(Nc3ccc(N4CCOCC4)cc3)n2)cc1 system_name="BaF3 TELJAK2 cells (BafT_J2) (Homo sapiens, UniProt O60674)" observed_measurement="< 20 µM"
smiles_representation=N#CCc1cn(Cc2ccc(Sc3ccnc(Nc4ccc(N5CCOCC5)cc4)n3)cc2)cn1 system_name="BaF3 TELJAK2 cells (BafT_J2) (Homo sapiens, UniProt O60674)" observed_measurement="< 5 µM"
smiles_representation=C=CC(=O)Nc1ccc(Sc2nc(Nc3ccc(OC)c(OC)c3)ncc2C)cc1 system_name="BaF3 TELJAK2 cells (BafT_J2) (Homo sapiens, UniProt O60674)" observed_measurement="< 5 µM"
smiles_representation=C=CC(=O)Nc1ccc(Sc2nc(Nc3ccc(N4CCOCC4)cc3)ncc2Cl)cc1 system_name="BaF3 TELJAK2 cells (BafT_J2) (Homo sapiens, UniProt O60674)" observed_measurement="> 20 µM"

====

The entries below come with measured IC50 values attached.
system: BaF3 wild-type cells; assay: Cellular screening, BaF3 wild-type cells, Alamar Blue; assay type: cell-based; conditions: Mus musculus, 40 hr, read-out: BAF3wt IC50_nM
Measured property: IC50

molecule="C=CC(=O)Nc1cccc(Sc2ccnc(Nc3ccc(N4CCOCC4)cc3)n2)c1 [Compound 23]" observed_measurement="< 20 µM"
molecule="C=CC(=O)N(C)c1ccc(Sc2ccnc(Nc3ccc(N4CCOCC4)cc3)n2)cc1 [Compound 91]" observed_measurement="> 20 µM"
molecule="C=CC(=O)Nc1ccc(Sc2ccnc(Nc3cccc(C#N)c3)n2)cc1 [Compound 118]" observed_measurement="> 20 µM"
molecule="Nc1ccc(Sc2ccnc(Nc3ccc(N4CCOCC4)cc3)n2)cc1 [Compound 27]" observed_measurement="< 20 µM"
molecule="CC(=O)Nc1ccc(Sc2ccnc(Nc3ccc(N4CCC(N5CCCC5)CC4)cc3)n2)cc1 [Compound 86]" observed_measurement="< 5 µM"

====

molecular target: Flt 4(h) (Homo sapiens, UniProt P35916); construct: purchased Upstate Biotechnology (Dundee, UK), KinaseProfiler service; experiment: Upstate KinaseProfiler enzyme assay, Flt 4; type: biochemical; settings: 500 nM compound; read-out: Percent inhibition at 500 nM Flt 4(h)
Sequence (P35916 25-1363): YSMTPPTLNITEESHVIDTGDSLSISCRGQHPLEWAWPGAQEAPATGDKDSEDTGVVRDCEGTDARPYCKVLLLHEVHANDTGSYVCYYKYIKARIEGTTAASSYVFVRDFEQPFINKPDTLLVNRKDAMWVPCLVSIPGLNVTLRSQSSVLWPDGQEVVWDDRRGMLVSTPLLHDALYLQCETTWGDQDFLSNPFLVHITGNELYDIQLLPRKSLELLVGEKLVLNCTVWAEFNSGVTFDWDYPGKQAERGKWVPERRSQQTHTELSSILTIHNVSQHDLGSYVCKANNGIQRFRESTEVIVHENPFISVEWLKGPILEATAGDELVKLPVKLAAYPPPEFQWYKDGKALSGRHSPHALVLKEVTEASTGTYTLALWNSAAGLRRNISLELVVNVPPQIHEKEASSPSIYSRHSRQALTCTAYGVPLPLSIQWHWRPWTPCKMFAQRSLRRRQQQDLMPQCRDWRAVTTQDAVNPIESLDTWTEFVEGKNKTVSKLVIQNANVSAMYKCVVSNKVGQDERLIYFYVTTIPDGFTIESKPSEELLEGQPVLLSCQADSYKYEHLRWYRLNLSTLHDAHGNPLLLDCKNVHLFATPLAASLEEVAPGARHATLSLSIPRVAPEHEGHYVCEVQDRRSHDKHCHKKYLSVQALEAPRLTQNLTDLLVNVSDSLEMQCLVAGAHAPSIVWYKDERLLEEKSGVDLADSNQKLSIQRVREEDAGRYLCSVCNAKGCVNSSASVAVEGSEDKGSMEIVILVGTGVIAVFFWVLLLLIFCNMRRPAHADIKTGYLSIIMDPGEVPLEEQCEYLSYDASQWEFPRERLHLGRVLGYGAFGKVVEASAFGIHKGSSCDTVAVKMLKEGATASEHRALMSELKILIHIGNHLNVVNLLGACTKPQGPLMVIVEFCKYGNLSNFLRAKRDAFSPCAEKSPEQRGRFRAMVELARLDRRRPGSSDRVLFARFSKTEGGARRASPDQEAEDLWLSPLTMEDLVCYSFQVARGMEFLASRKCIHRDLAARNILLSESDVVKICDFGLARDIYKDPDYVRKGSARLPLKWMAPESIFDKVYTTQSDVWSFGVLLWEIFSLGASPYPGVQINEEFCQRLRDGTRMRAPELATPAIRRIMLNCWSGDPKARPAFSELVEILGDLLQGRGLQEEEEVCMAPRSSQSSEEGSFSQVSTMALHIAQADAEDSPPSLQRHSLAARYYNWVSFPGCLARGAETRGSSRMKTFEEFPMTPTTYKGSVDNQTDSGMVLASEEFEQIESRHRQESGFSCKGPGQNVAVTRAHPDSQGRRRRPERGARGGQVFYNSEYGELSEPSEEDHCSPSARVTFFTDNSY
The entries below come with measured inhibition at 0.5 µM values attached.
Measured property: inhibition at 0.5 µM (%)

smiles_representation=C=CC(=O)Nc1ccc(Sc2nc(Nc3cccc(NS(C)(=O)=O)c3)ncc2C)cc1 measured_property="inhibition at 0.5 µM" units_symbol=% observed_measurement=100
smiles_representation=C=CC(=O)Nc1ccc(Sc2nc(Nc3cccc(N4CCOCC4)c3)ncc2C)cc1 measured_property="inhibition at 0.5 µM" units_symbol=% observed_measurement=99
smiles_representation=C=CC(=O)Nc1ccc(Sc2nc(Nc3ccc(N4CCC(C(=O)OCC)CC4)cc3)ncc2C)cc1 measured_property="inhibition at 0.5 µM" units_symbol=% observed_measurement=100
smiles_representation=N#Cc1nnnn1Cc1ccc(Sc2ccnc(Nc3ccc(N4CCOCC4)cc3)n2)cc1 measured_property="inhibition at 0.5 µM" units_symbol=% observed_measurement=99
smiles_representation=C=CC(=O)N(C)c1ccc(Sc2nc(Nc3ccc(N4CCOCC4)cc3)ncc2C)cc1 measured_property="inhibition at 0.5 µM" units_symbol=% observed_measurement=98
smiles_representation=CC(=O)Nc1ccc(Sc2nc(Nc3ccc(N4CCOCC4)cc3)ncc2C)cc1 measured_property="inhibition at 0.5 µM" units_symbol=% observed_measurement=99
smiles_representation=Cc1cnc(Nc2ccc(N3CCOCC3)cc2)nc1Sc1ccc(N)cc1 measured_property="inhibition at 0.5 µM" units_symbol=% observed_measurement=99
smiles_representation=Cc1cc(N)ccc1Sc1nc(Nc2ccc(N3CCOCC3)cc2)ncc1C measured_property="inhibition at 0.5 µM" units_symbol=% observed_measurement=98
smiles_representation=C=CC(=O)Nc1cc(C)c(Sc2nc(Nc3ccc(N4CCOCC4)cc3)ncc2C)c(C)c1 measured_property="inhibition at 0.5 µM" units_symbol=% observed_measurement=97
smiles_representation=Cc1cnc(Nc2ccc(N3CCOCC3)cc2)nc1Sc1c(C)cc(N)cc1C measured_property="inhibition at 0.5 µM" units_symbol=% observed_measurement=99
smiles_representation=C=CC(=O)Nc1ccc(Sc2nc(Nc3ccc(N4CCOCC4)c(OC)c3)ncc2C)cc1 measured_property="inhibition at 0.5 µM" units_symbol=% observed_measurement=100
smiles_representation=C=CC(=O)Nc1ccc(Sc2nc(Nc3ccc(C4CCN(C)CC4)cc3)ncc2C)cc1 measured_property="inhibition at 0.5 µM" units_symbol=% observed_measurement=100
smiles_representation=C=CC(=O)Nc1ccc(Sc2nc(Nc3ccc(N4CCOCC4)cc3)ncc2-c2ccccc2)cc1 measured_property="inhibition at 0.5 µM" units_symbol=% observed_measurement=93
smiles_representation=C=CC(=O)Nc1ccc(Sc2nc(Nc3cccc(N4CCN(C)CC4)c3)ncc2C)cc1 measured_property="inhibition at 0.5 µM" units_symbol=% observed_measurement=100
smiles_representation=C=CC(=O)Nc1ccc(Sc2nc(Nc3cccc(OC)c3)ncc2C)cc1 measured_property="inhibition at 0.5 µM" units_symbol=% observed_measurement=99
smiles_representation=C=CC(=O)Nc1ccc(Sc2nc(Nc3ccc(N4CCOCC4)cc3)ncc2C)cc1 measured_property="inhibition at 0.5 µM" units_symbol=% observed_measurement=100
smiles_representation=C=CC(=O)Nc1ccc(Sc2nc(Nc3ccc(N4CCOCC4)cc3)ncc2C)c(C)c1 measured_property="inhibition at 0.5 µM" units_symbol=% observed_measurement=99
